test: folding stability dG unfold (combined trypsin and chymotrypsin); higher = more stable
Below, each of the sequences is paired with its reported folding stability dG unfold value.
Quick reminder: number only, in kcal/mol, skip the unit.

sequence record: SAGGSAGGSMELVIKTVTVNSPSKSPEELAKEIEEKYGVKILKVEVTEDPEGGVTVTATIINKSAGGSAGGS [r12_359_JUSTAS]
quantity unit: kcal/mol
observed result: 1.49
//
sequence record: SAGGSAEKEVYLVPFESEEKREKLREALLAEPGIEEVKETEDGVLLVTVPKGLSDKVEKAIKEAGISAGGSA [r15_834_TrMRF]
quantity unit: kcal/mol
observed result: 1.17
//
sequence record: SAGGKVVVLTFPKDNPEEVREALAKLPNVVRVEVEKVNDRYLAVAELEGELAVFVSLPDGRYVLLVLGSAGG [r13_907_TrMRF]
quantity unit: kcal/mol
observed result: 2.73

Query: Input SAGGSAGGMVERPITLRVRVKTPEEVKKLVEELLKPTDAKADVVEEELEDGTVLVTLTIYVPEESAGGSAGG [r6_719_TrMRF] , output reported folding stability dG unfold.
Response: 1.62

Query: Note folding stability dG unfold for the sequence shown: SAGGSAGGSAMPEPVLIVVEVESLEEAKKLAEELAVEGVKVEVDPESGLVKIEIEKESLLESAGGSAGGSAG [r3_186_TrMRF]
Response: 1.12

Query: Annotate the sequence SAGGSAGGSAGGIIIPPGAKIVSIEKEGDFVKIKVYIPGSKKIETFKFPKGVPIIFEPEASAGGSAGGSAGG [r11_774_TrMRF] with its measured folding stability dG unfold.
Response: 3.41

Query: State its folding stability dG unfold: SAGGSAGGDYERDPNNGKMKMKPKVEPPPPPKIIQIQIPFPEEADDFMNELQDNGYPIYLSPGGSAGGSAGG [r6_872_TrROS]
Response: 0.745

Query: Please report the measured folding stability dG unfold for SAGGSAMPRSSVSIVSVERAPDGTVTIPTKTTLTTPDGTVTTEESTVTLEVPPGRELSEEEIKKLLSAGGSA [r15_836_JUSTAS]
Response: 0.53

Query: Give the reported value of folding stability dG unfold for this record: SAGGSAGGSAGGMILVENPSLNESTVLSKDTPISSFKVPSDNSKVRIIIIYPSNSFVVISSAGGSAGGSAGG [r7_763_JUSTAS]
Response: 1.71

Query: Assign folding stability dG unfold to the following record: SAGGSAGGSAGMFVERTLEITFVRPPNGPGPEEVEKRAKELQEKNPHLNVKVKVVDPSEASAGGSAGGSAGG [r17_220_JUSTAS]
Response: 0.699

Query: State its folding stability dG unfold for this sequence: SAGPIIIRVKYPDGRQIDINPENPWQIQIWDPGGKKETYPFDSNEDAKDKVVDWLGEEHGWPIKDVEIVSAG [r5_119_TrROS]
Response: 0.403

Query: State its folding stability dG unfold for this sequence: SAGGSAGGSAGKVIKLEELKKKFPNMSPEELAAFFKKLGYKVEVVKVGDVPYVFLSPGEKSAGGSAGGSAGG [r11_707_TrMRF]
Response: 3.33

Query: Return reported folding stability dG unfold. Input sequence: SAGGSAGGSSPPLEILDPVSATLPDGGTLTVAKAAGSYYLVTTTTYDPATGTATSTTTVVPLESAGGSAGGS [r20_15_JUSTAS]
Response: 0.528

Query: Give folding stability dG unfold for the following sequence: SAMTTTTTTTDPASGRTVVTTTTPLPDGSVVTTEVDLSNPVRTTTTHPLTDGTPAPTTTTTALPADATLSAG [r14_64_JUSTAS]
Response: -0.345

This collection of values is drawn from the supplement of paper PMC12764529.
